Entry source: patent US20110212968A1

target: human orexin-1 receptor (Homo sapiens, UniProt O43613); construct: expressed in transfected cells; host or cells: CHO (Chinese hamster ovary) cells, kept under G418 selection; test: Intracellular calcium measurement (FLIPR Tetra), orexin receptor antagonistic activity, OX1; assay type: cell-based; conditions: CHO cells expressing human orexin-1 receptor, 3 nM orexin-A, conditions B, normalized (*) using IC50 of on-plate reference compound
Sequence (O43613 whole entry): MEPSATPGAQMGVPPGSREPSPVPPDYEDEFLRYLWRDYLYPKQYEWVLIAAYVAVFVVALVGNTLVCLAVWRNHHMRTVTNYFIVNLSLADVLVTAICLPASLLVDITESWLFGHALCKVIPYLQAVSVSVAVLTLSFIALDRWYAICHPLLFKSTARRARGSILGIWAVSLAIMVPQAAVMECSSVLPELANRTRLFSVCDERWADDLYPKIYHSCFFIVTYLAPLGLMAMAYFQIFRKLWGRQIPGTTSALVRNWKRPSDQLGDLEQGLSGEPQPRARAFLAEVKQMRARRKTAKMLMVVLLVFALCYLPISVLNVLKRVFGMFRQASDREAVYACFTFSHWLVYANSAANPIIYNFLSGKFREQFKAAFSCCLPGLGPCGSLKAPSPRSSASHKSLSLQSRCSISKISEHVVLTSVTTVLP
TEST READOUT: IC50 (nM)

Example compounds with recorded IC50:
Cc1nc(C(=O)N(CCc2c[nH]c3ccc(F)cc23)CC2CC2)c(-c2ccc(CO)nc2)s1 1610
Cc1ccc(-c2ncncc2C(=O)N(CCc2c[nH]c3ccccc23)CC2CC2)cc1C 31

(I) O=C(c1cncnc1-c1ccccc1)N(CCc1c[nH]c2cc(F)c(Cl)cc12)CC1CC1
(II) CN(C)c1cccc(-c2ocnc2C(=O)N(CCc2c[nH]c3ccc(F)cc23)CC2CC2)c1
Request: Choose between I and II : whose measured IC50 value is numerically larger? Label of pick, please.
Result: II

---

target: human orexin-1 receptor (Homo sapiens); construct: expressed in transfected cells; host or cells: CHO (Chinese hamster ovary) cells, kept under G418 selection; test: Intracellular calcium measurement (FLIPR Tetra), orexin receptor antagonistic activity, OX1; type: cell-based; conditions: CHO cells expressing human orexin-1 receptor, 3 nM orexin-A, conditions B, normalized (*) using IC50 of on-plate reference compound
pIC50: −log10 of the molar value.
TEST READOUT: pIC50

COc1ccc(-c2cccnc2C(=O)N(CCc2c[nH]c3cc(Cl)ccc23)CC2CC2)cn1 7.06
O=C(c1ncccc1-c1cc(Cl)cnc1F)N(CCc1c[nH]c2ccc(F)cc12)CC1CC1 5.42
CCN(CCc1c[nH]c2ccccc12)C(=O)c1nccnc1-c1cccc(OC)c1 5.63
Cc1cncc(-c2sc(C)nc2C(=O)N(CCc2c[nH]c3ccc(F)cc23)CC2CC2)c1 6.53
Cc1ccc(-c2sc(C3CC3)nc2C(=O)N(CCc2c[nH]c3ccc(F)cc23)CC2CC2)cc1F 5.65
Cc1ccc(-c2nccnc2C(=O)N(CCc2nc3cc(C)c(C)cc3[nH]2)CC2CC2)cc1C 6.99
Cc1ccc(-c2nccnc2C(=O)N(CCc2c[nH]c3c(F)cccc23)CC2CC2)cc1C 7.00
Cc1cccc(-c2sc(CN(C)C)nc2C(=O)N(CCc2c[nH]c3ccc(F)cc23)CC2CC2)c1 5.25

(I) Cc1ccc(-c2nccnc2C(=O)N(CCc2c[nH]c3cc(Cl)ccc23)CC2CC2)cc1C
(II) CSc1cncc(-c2sc(C)nc2C(=O)N(CCc2c[nH]c3ccc(F)cc23)CC2CC2)c1
Request: Choose between I and II : whose measured pIC50 value is numerically larger? Label of pick, please.
Result: I
(I: 7.21, II: 6.74)

(a) COc1ccc(-c2cccnc2C(=O)N(CCc2c[nH]c3ccc(F)cc23)CC2CC2)cn1
(b) COc1ccc(-c2cccnc2C(=O)N(CCc2c[nH]c3ccc(C)cc23)CC2CC2)cn1
(c) COCCOc1cccc(-c2sc(C)nc2C(=O)N(CCc2c[nH]c3ccccc23)CC(=O)OC)c1
Request: Hey, quick one: sort these by pIC50, largest value first please. The reply should contain the labels ordered as requested.
Result: b, a, c

---

molecular target: human orexin-2 receptor (Homo sapiens, UniProt O43614); construct: expressed in transfected cells; host or cells: CHO (Chinese hamster ovary) cells, kept under G418 selection; experiment: Intracellular calcium measurement (FLIPR Tetra), orexin receptor antagonistic activity, OX2; assay type: cell-based; conditions: CHO cells expressing human orexin-2 receptor, 3 nM orexin-A, conditions B, normalized (*) using IC50 of on-plate reference compound
Sequence (O43614 whole entry): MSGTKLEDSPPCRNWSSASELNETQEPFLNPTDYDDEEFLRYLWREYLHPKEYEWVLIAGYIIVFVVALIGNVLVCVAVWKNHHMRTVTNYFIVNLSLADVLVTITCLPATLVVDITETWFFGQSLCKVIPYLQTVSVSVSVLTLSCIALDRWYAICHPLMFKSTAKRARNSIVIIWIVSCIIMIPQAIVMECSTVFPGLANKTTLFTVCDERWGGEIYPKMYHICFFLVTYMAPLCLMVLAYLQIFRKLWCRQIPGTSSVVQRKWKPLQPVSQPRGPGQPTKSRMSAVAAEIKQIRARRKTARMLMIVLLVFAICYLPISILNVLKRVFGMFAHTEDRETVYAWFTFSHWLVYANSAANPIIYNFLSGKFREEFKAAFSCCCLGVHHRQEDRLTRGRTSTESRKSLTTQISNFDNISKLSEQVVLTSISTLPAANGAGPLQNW
pIC50: −log10 of the molar value.
TEST READOUT: pIC50

Cc1ccc(-c2ncncc2C(=O)N(CCc2c[nH]c3ccccc23)CC2CC2)cc1C 7.77
COc1ccc(-c2cccnc2C(=O)N(CCc2c[nH]c3ccc(F)cc23)CC2CC2)cn1 7.96

(1) Cc1ccc(-c2nccnc2C(=O)N(CCc2c[nH]c3c(F)cccc23)CC2CC2)cc1C
(2) COc1ccc(-c2cccnc2C(=O)N(CCc2c[nH]c3cc(Cl)ccc23)CC2CC2)cn1
(3) O=C(c1ncccc1-c1cnc2ccccc2c1)N(CCc1c[nH]c2ccc(F)cc12)CC1CC1
Request: Sort the compounds on pIC50; start with the lowest figure. The reply should contain the labels ordered as requested.
Result: 1, 2, 3
(1: 7.28, 2: 7.64, 3: 7.92)
